Tested on: MDR P. aeruginosa clinical isolate 014B2-1
Experiment: Minimum inhibitory concentration (MIC) assay
Type: cell-based, Pseudomonas aeruginosa
Details: MHB, 10^5 CFU/well, peptide 0-50 μM, 37 °C, 20 h, OD600; average of n = 6 replicates from N = 3 biological experiments; asterisk = beyond 50 μM
property label: MIC, Isolate 014B2-1 (µM)
Give your result in µM as a bare value.

substance	MIC, Isolate 014B2-1 (µM)
H-KKKKKKWAGSAAIGALLPSVVGLFQ-NH2 [PonN 2A]	5.20
H-WLKKALKIGAKLLPSVVKLFKGSGQ-NH2 [PonAmp]	3.12
H-WAGSAAIGAALPSVVGLFQKKKKKK-NH2 [PonC 3A]	50

Entry H-KKKKKKWAGSAAIGAALPSVVGLFQ-NH2 [PonN 3A] — recorded MIC, Isolate 014B2-1 = 23

Entry H-WLGSALKIGAKLLPSVVGLFKKKKQ-NH2 [Ponericin W1, reference compound] — recorded MIC, Isolate 014B2-1 = 4.68

Entry H-WAKKAAKIGAKLLPSVVKLFKGSGQ-NH2 [PonAmp 2A] — recorded MIC, Isolate 014B2-1 = 50

Entry H-WAGSAAIGALLPSVVGLFQKKKKKK-NH2 [PonC 2A] — recorded MIC, Isolate 014B2-1 = 6.25

Entry H-WLGSALIGALLPSVVGLFQKKKKKK-NH2 [PonC] — recorded MIC, Isolate 014B2-1 = 2.86

Entry H-KKKKKKWLGSALIGALLPSVVGLFQ-NH2 [PonN] — recorded MIC, Isolate 014B2-1 = 5.20
